Measured values drawn from ChEMBL document CHEMBL3608206 for this set.

# assay.overview: Antioxidant activity assessed as DPPH radical scavenging activity at 100 uM after 240 mins by spectrophotometric analysis relative to control
# Format: physicochemical
# condition.label: 4 h
property.measured: Activity (%)

Solved entries (count: 6):
{"compound": "O=C(O)Cn1c(=O)c(Oc2cc(O)cc(O)c2)nc2cc(F)ccc21", "result.unit": "%", "Activity": 25.4}
{"compound": "O=C(O)Cn1c(=O)c(Oc2ccc(O)cc2)nc2cc(F)ccc21", "result.unit": "%", "Activity": 23.7}
{"compound": "O=C(O)Cn1c(=O)c(Oc2cc(O)cc(O)c2)nc2ccc(Cl)cc21", "result.unit": "%", "Activity": 91.3}
{"compound": "O=C(O)Cn1c(=O)c(Oc2ccc(O)cc2)nc2ccc(Cl)cc21", "result.unit": "%", "Activity": 84.8}
{"compound": "Cc1c(C)c2c(c(C)c1O)CCC(C)(C(=O)O)O2 (centres undefined)", "result.unit": "%", "Activity": 96.7}
{"compound": "O=C(O)Cn1c(=O)c(Oc2cc(O)cc(O)c2)nc2ccccc21", "result.unit": "%", "Activity": 67.4}

I = O=C(O)Cn1c(=O)c(Oc2cc(O)cc(O)c2)nc2ccc(F)cc21
II = O=C(O)Cn1c(=O)c(Oc2cc(O)cc(O)c2)nc2cc(Cl)ccc21
III = O=C(O)Cn1c(=O)c(Oc2ccc(O)cc2)nc2ccccc21
Arrange these 3 compounds in increasing order of Activity. Please express your ranking as an ordered list of the labels. III, I, II

###

# assay.overview: Antioxidant activity assessed as DPPH radical scavenging activity at 50 uM after 240 mins by spectrophotometric analysis relative to control
# Format: physicochemical
# condition.label: 4 h
property.measured: Activity (%)

I = O=C(O)Cn1c(=O)c(Oc2cc(O)cc(O)c2)nc2ccc(F)cc21
II = O=C(O)Cn1c(=O)c(Oc2ccc(O)cc2)nc2ccc(Cl)cc21
Between I and II , whose recorded Activity is greater? Reply with the label of the item you choose. II

1 = O=C(O)Cn1c(=O)c(Oc2cc(O)cc(O)c2)nc2ccc(Cl)cc21
2 = O=C(O)Cn1c(=O)c(Oc2cc(O)cc(O)c2)nc2ccccc21
Two entries are listed, 1 and 2 . Which one carries the higher Activity? // return label of chosen record 1
(1: 83.7%, 2: 46.5%)

I = Cc1c(C)c2c(c(C)c1O)CCC(C)(C(=O)O)O2 (stereo unspecified)
II = O=C(O)Cn1c(=O)c(Oc2cc(O)cc(O)c2)nc2cc(Cl)ccc21
Param pair: I , II . Output: the one whose Activity is numerically greater. Let me know the label of the one you choose. I

###

# System: Brain
# assay.overview: Antioxidant activity in rat brain assessed as inhibition of MDA production at 10 uM by TBARS assay relative to control
# Type: functional
Overview of recorded inhibition at 10 µM for various molecules
Answer in %, number only, no unit symbol.

Past entries and their recorded results:
{"molecule": "Cc1c(C)c2c(c(C)c1O)CCC(C)(C(=O)O)O2 (stereo unspecified)", "property.measured": "inhibition at 10 µM", "result.unit": "%", "experimental.result": 90.1}
{"molecule": "O=C(O)Cn1c(=O)c(Oc2cc(O)cc(O)c2)nc2ccccc21", "property.measured": "inhibition at 10 µM", "result.unit": "%", "experimental.result": 5.7}
{"molecule": "O=C(O)Cn1c(=O)c(Oc2ccc(O)cc2)nc2ccc(Cl)cc21", "property.measured": "inhibition at 10 µM", "result.unit": "%", "experimental.result": 10.1}
{"molecule": "O=C(O)Cn1c(=O)c(Oc2cc(O)cc(O)c2)nc2cc(Cl)ccc21", "property.measured": "inhibition at 10 µM", "result.unit": "%", "experimental.result": 8.1}
{"molecule": "O=C(O)Cn1c(=O)c(Oc2cc(O)cc(O)c2)nc2ccc(F)cc21", "property.measured": "inhibition at 10 µM", "result.unit": "%", "experimental.result": 9.3}

As a next step, examine the molecule that follows.
Report inhibition at 10 µM for O=C(O)Cn1c(=O)c(Oc2cc(O)cc(O)c2)nc2ccc(Cl)cc21 tested on Brain. 26.6
